PROTOCOL DETAILS: Human HepG2 cell viability assay in 384 well format
Format: toxicity, cell-based
Set-up: dose 125 nL, time 70.5 hour; concentration not given beside the values
COND: HepG2 cells, read-out: Inhibition
VALUE TYPE: cytotoxicity at 70.5 h
Put your answer as a value accompanied by its unit after it.

Entry under review: `CCCn1nc(C)c(C(=O)N[C@@H]2CC[C@@H](N3CCCC3)[C@@H]2O)c1C` . Reported cytotoxicity at 70.5 h? -6.2%

Entry under review: `CC(C)c1cc(CN2CCN(c3cccnc3)CC2)n(C)n1` . Reported cytotoxicity at 70.5 h? 5.33%

Entry under review: Cc1cnn(CC2CN(CC(=O)N(C)Cc3ccsc3)CCO2)c1 (stereo unspecified) . Reported cytotoxicity at 70.5 h? 5.76%

Entry under review: O=C1N(Cc2ccccc2F)CCCC12CCN(C1CCSCC1)C2 (stereo unspecified) . Reported cytotoxicity at 70.5 h? -4.98%

Entry under review: `CN([C@@H]1CCC[C@@H](n2ccnc2)[C@@H]1O)S(=O)(=O)c1cn(C)cn1` . Reported cytotoxicity at 70.5 h? 19.9%

Entry under review: `COc1ccccc1NC(=O)c1[nH]nc(C(C)C)c1Br` . Reported cytotoxicity at 70.5 h? -3.43%

Entry under review: CN1CCCC(Cc2cncc(C(=O)NC3CC3)c2)C1 (stereo unspecified) . Reported cytotoxicity at 70.5 h? -6.9%

Entry under review: `N#Cc1ccccc1N1CCN(C(=O)NCCN2CCOCC2)CC1` . Reported cytotoxicity at 70.5 h? 0.377%

Entry under review: Cc1ncsc1CN1CC(C)(C2CC2)CC1=O (stereo unspecified) . Reported cytotoxicity at 70.5 h? -12.2%

Entry under review: `Cc1ccsc1C(=O)N1CCc2ncc(CN(C)C)n2CC1` . Reported cytotoxicity at 70.5 h? -7.39%

Entry under review: `Cc1ncc(CC(=O)N2C[C@@H]3CC[C@H](C2)N(CC2CCC2)C3)c(=O)[nH]1` . Reported cytotoxicity at 70.5 h? -17.8%

Entry under review: `COc1ccccc1OCCN(C)Cc1c(C2CC2)[nH]c2ncccc12` . Reported cytotoxicity at 70.5 h? 20.9%

Entry under review: Cc1ccc2nc(C3CCCN(Cc4ccccc4)C3)nc(O)c2c1 (stereo unspecified) . Reported cytotoxicity at 70.5 h? 0.432%

Entry under review: `O=C(NCCN1CCCCC1)c1ccn(-c2ccc(F)cc2)n1` . Reported cytotoxicity at 70.5 h? 0.39%

Entry under review: CCN(Cc1ccc(O)c(C(=O)O)c1)CC1CCCO1 (stereo unspecified) . Reported cytotoxicity at 70.5 h? 24.1%

Entry under review: `Cc1nonc1NC(=O)c1ccc(F)c(COCC2CC2)c1` . Reported cytotoxicity at 70.5 h? 11.9%

Entry under review: CC(C)(C)CN1CCCC(O)(CN2CCc3[nH]ncc3C2)C1=O (stereo unspecified) . Reported cytotoxicity at 70.5 h? -1.48%

Entry under review: `CC(C)CNc1nc(C(=O)/N=c2\[nH]nc(C(C)(C)C)s2)cs1` . Reported cytotoxicity at 70.5 h? 4.48%

Entry under review: `Cc1cs/c(=N\C(=O)Cn2nc(N3CCSCC3)ccc2=O)[nH]1` . Reported cytotoxicity at 70.5 h? -13.2%

Entry under review: `O=C1OCCN1CCc1nc(-c2cc3c4c(c2)CC(=O)N4CCC3)cs1` . Reported cytotoxicity at 70.5 h? 10.6%

Entry under review: COc1c(C2CCCN2C(=O)c2cccc(C)n2)c(C)nn1C (stereo unspecified) . Reported cytotoxicity at 70.5 h? -16.2%

Entry under review: O=S1(=O)CCC(NCCn2cncc2-c2ccc3c(c2)CCCO3)C1 (stereo unspecified) . Reported cytotoxicity at 70.5 h? -8.18%

Entry under review: CCC(CNC(=O)CNC(C)=O)Oc1cccc(F)c1 (stereo unspecified) . Reported cytotoxicity at 70.5 h? -9.82%

Entry under review: c1ccc(CN2CCNCC(Cc3cnccn3)C2)cc1 (stereo unspecified) . Reported cytotoxicity at 70.5 h? -1.06%

Entry under review: O=C(NCc1cccnc1)NCC(O)c1cccc(C(F)(F)F)c1 (stereo unspecified) . Reported cytotoxicity at 70.5 h? -9.97%

Entry under review: `CC(C)(C)SCC(=O)Nc1cc(-n2nnnc2C2CC2)ccc1F` . Reported cytotoxicity at 70.5 h? 10.5%

Entry under review: CNC(C(=O)N1CCC(c2nccn2C(C)C)CC1)c1ccccc1 (stereo unspecified) . Reported cytotoxicity at 70.5 h? -8.05%

Entry under review: `Cc1ccc(CN2C[C@@H]3CN(CC4CCOCC4)CCO[C@@H]3C2)s1` . Reported cytotoxicity at 70.5 h? 8.99%

Entry under review: Cc1cccc(CN2Cc3ccnn3CC(COCC3CC3)C2)n1 (stereo unspecified) . Reported cytotoxicity at 70.5 h? 8.5%

Entry under review: `CO[C@H]1CN(C(=O)c2ccc3c(c2)OCO3)[C@@H]2COC[C@H]12` . Reported cytotoxicity at 70.5 h? 0.574%

Entry under review: Cc1nc2n(n1)CC(NCc1nnc(C(C)(C)C)o1)CC2 (stereo unspecified) . Reported cytotoxicity at 70.5 h? -6.83%

Entry under review: `CC1=CCN(S(=O)(=O)c2cccc(C(=O)N3CCCN(C)CC3)c2)CC1` . Reported cytotoxicity at 70.5 h? -10.6%

Entry under review: COCCc1noc(CNC2CCc3nc(C(C)C)nn3C2)n1 (stereo unspecified) . Reported cytotoxicity at 70.5 h? -5%

Entry under review: `CCn1nc(C)c(C(=O)N2C[C@@H](CN(C)CCOC)[C@@H](CO)C2)c1C` . Reported cytotoxicity at 70.5 h? -6.72%

Entry under review: Cn1cc(C(=O)N2CCCC(C(=O)CCc3ccccc3)C2)cn1 (stereo unspecified) . Reported cytotoxicity at 70.5 h? -23.4%

Entry under review: `Cc1ccc(CN2CCC(O)(Cn3nc(-c4cccs4)oc3=O)CC2)o1` . Reported cytotoxicity at 70.5 h? -1.27%

Entry under review: `CC(=O)Nc1nc(C(=O)NCCOc2ccccc2F)cs1` . Reported cytotoxicity at 70.5 h? -15.5%

Entry under review: `Cc1ccc(NC2CCN(C(=O)CCc3cscn3)CC2)nn1` . Reported cytotoxicity at 70.5 h? 11.4%

Entry under review: `CN(CCO)Cc1nnc(C2CCN(C(=O)C(C)(C)C)CC2)n1C` . Reported cytotoxicity at 70.5 h? -4.92%

Entry under review: c1ccc2c(N3CCCCC3Cn3cncn3)ncnc2c1 (stereo unspecified) . Reported cytotoxicity at 70.5 h? -9.62%

Entry under review: COCCCNC1N=C(n2nc(C)cc2C)Nc2sc3c(c21)CCCC3 (stereo unspecified) . Reported cytotoxicity at 70.5 h? 8.46%

Entry under review: `CCOCCC(=O)N(C)c1ccc(F)c(Cl)c1` . Reported cytotoxicity at 70.5 h? -7.99%

Entry under review: Cc1ccsc1C(=O)N1CC(C(=O)NC(C)C)C2(CCOCC2)C1 (stereo unspecified) . Reported cytotoxicity at 70.5 h? 1.65%

Entry under review: CC1CN(S(=O)(=O)c2ccc(C(=O)NCC(F)F)cc2)CCCO1 (stereo unspecified) . Reported cytotoxicity at 70.5 h? -0.0719%

Entry under review: `Cc1ccc2c(n1)N(CCN(C)C)CCN(C(=O)c1cccs1)C2` . Reported cytotoxicity at 70.5 h? -5.81%

Entry under review: `CC(C)[C@@H]1CN(C(=O)c2ccc3c(c2)CCCO3)C[C@H]1NS(C)(=O)=O` . Reported cytotoxicity at 70.5 h? -1.93%
